pIC50: −log10 of the molar value.
Target or system HIV-1 protease (Human immunodeficiency virus type 1 group M subtype B, UniProt P04585): recorded pIC50 listed per item.
endpointName: pIC50

[[record]]
compound = "CC(C)CN(C[C@@H](O)[C@H](Cc1ccccc1)NC(=O)c1cc(O)cc(O)c1)S(=O)(=O)c1ccc(N)cc1 [16f]"
endpointname = "pIC50"
measurednumber = 9.57

[[record]]
compound = "CSc1ccc(S(=O)(=O)N(CC(C)C)C[C@@H](O)[C@H](Cc2ccccc2)NC(=O)c2ccccc2O)cc1 [17a]"
endpointname = "pIC50"
measurednumber = 8.40

[[record]]
compound = "CC(C)CN(C[C@@H](O)[C@H](Cc1ccccc1)NC(=O)c1ccc(Cl)cc1O)S(=O)(=O)c1ccc(N)cc1 [16b]"
endpointname = "pIC50"
measurednumber = 9.51

[[record]]
compound = "COc1ccc(S(=O)(=O)N(CC(C)C)C[C@@H](O)[C@H](Cc2ccccc2)NC(=O)c2cc(OC)c(OC)cc2O)cc1 [15i]"
endpointname = "pIC50"
measurednumber = 8.85


====

- targetOrSystem: HIV-1 protease (Human immunodeficiency virus type 1 group M subtype B)
Each entry below lists one item and its recorded log10 of IC50 value.
endpointName: log10 of IC50 (log10 of the value in nM)

[[record]]
compound = "COc1ccc(S(=O)(=O)N(CC(C)C)C[C@@H](O)[C@H](Cc2ccccc2)NC(=O)c2ccc(O)cc2O)cc1 [15e]"
measurednumber = -0.52

[[record]]
compound = "COc1ccc(S(=O)(=O)N(CC(C)C)C[C@@H](O)[C@H](Cc2ccccc2)NC(=O)c2ccc(Cl)cc2O)cc1 [15b]"
measurednumber = 0.89

[[record]]
compound = "COc1ccc(S(=O)(=O)N(CC(C)C)C[C@@H](O)[C@H](Cc2ccccc2)NC(=O)c2ccc(O)c(O)c2)cc1 [15d]"
measurednumber = -2.23

[[record]]
compound = "COc1ccc(S(=O)(=O)N(CC(C)C)C[C@@H](O)[C@H](Cc2ccccc2)NC(=O)c2ccc(OC)cc2O)cc1 [15c]"
measurednumber = 0.67

[[record]]
compound = "CSc1ccc(S(=O)(=O)N(CC(C)C)C[C@@H](O)[C@H](Cc2ccccc2)NC(=O)c2ccc(O)cc2O)cc1 [17e]"
measurednumber = -0.40

[[record]]
compound = "COc1ccc(S(=O)(=O)N(CC(C)C)C[C@@H](O)[C@H](Cc2ccccc2)NC(=O)c2cc(OC)c(O)c(OC)c2)cc1 [15h]"
measurednumber = -1.10

[[record]]
compound = "CSc1ccc(S(=O)(=O)N(CC(C)C)C[C@@H](O)[C@H](Cc2ccccc2)NC(=O)c2ccc(Cl)cc2O)cc1 [17b]"
measurednumber = 0.45

[[record]]
compound = "COc1ccc(C(=O)N[C@@H](Cc2ccccc2)[C@H](O)CN(CC(C)C)S(=O)(=O)c2ccc(N)cc2)c(O)c1 [16c]"
measurednumber = 0.62

[[record]]
compound = "CC(C)CN(C[C@@H](O)[C@H](Cc1ccccc1)NC(=O)c1ccc(O)cc1O)S(=O)(=O)c1ccc(N)cc1 [16e]"
measurednumber = -0.37

[[record]]
compound = "COc1cc(C(=O)N[C@@H](Cc2ccccc2)[C@H](O)CN(CC(C)C)S(=O)(=O)c2ccc(SC)cc2)cc(OC)c1O [17h]"
measurednumber = -0.49

[[record]]
compound = "COc1ccc(S(=O)(=O)N(CC(C)C)C[C@@H](O)[C@H](Cc2ccccc2)NC(=O)c2cc(O)cc(O)c2)cc1 [15f]"
measurednumber = -2.62

[[record]]
compound = "CC(C)CN(C[C@@H](O)[C@H](Cc1ccccc1)NC(=O)c1ccc(O)c(O)c1)S(=O)(=O)c1ccc(N)cc1 [16d]"
measurednumber = 0.21

[[record]]
compound = "CSc1ccc(S(=O)(=O)N(CC(C)C)C[C@@H](O)[C@H](Cc2ccccc2)NC(=O)c2cc(O)cc(O)c2)cc1 [17f]"
measurednumber = -2.18

[[record]]
compound = "CSc1ccc(S(=O)(=O)N(CC(C)C)C[C@@H](O)[C@H](Cc2ccccc2)NC(=O)c2ccc(O)c(O)c2)cc1 [17d]"
measurednumber = -2.12

[[record]]
compound = "COc1cc(C(=O)N[C@@H](Cc2ccccc2)[C@H](O)CN(CC(C)C)S(=O)(=O)c2ccc(N)cc2)cc(OC)c1O [16h]"
measurednumber = -1.40

[[record]]
compound = "COc1ccc(C(=O)N[C@@H](Cc2ccccc2)[C@H](O)CN(CC(C)C)S(=O)(=O)c2ccc(SC)cc2)c(O)c1 [17c]"
measurednumber = 0.91

[[record]]
compound = "COc1cc(O)c(C(=O)N[C@@H](Cc2ccccc2)[C@H](O)CN(CC(C)C)S(=O)(=O)c2ccc(SC)cc2)cc1OC [17i]"
measurednumber = 0.67

[[record]]
compound = "CC(C)CN(C[C@@H](O)[C@H](Cc1ccccc1)NC(=O)c1ccccc1O)S(=O)(=O)c1ccc(N)cc1 [16a]"
measurednumber = -0.27

[[record]]
compound = "COc1ccc(S(=O)(=O)N(CC(C)C)C[C@@H](O)[C@H](Cc2ccccc2)NC(=O)c2cc(O)c(O)c(O)c2)cc1 [15g]"
measurednumber = 0.05

[[record]]
compound = "COc1cc(O)c(C(=O)N[C@@H](Cc2ccccc2)[C@H](O)CN(CC(C)C)S(=O)(=O)c2ccc(N)cc2)cc1OC [16i]"
measurednumber = -0.22

[[record]]
compound = "COc1ccc(S(=O)(=O)N(CC(C)C)C[C@@H](O)[C@H](Cc2ccccc2)NC(=O)c2ccccc2O)cc1 [15a]"
measurednumber = 0.52


====

- Tested on: VSV-G-pseudotyped HIV-1 (pHIV-1NL4-3)
- experimentNotes: microbe, parasite or virus in culture
- Format: cell-based
- measurementParameters: Human immunodeficiency virus 1, read-out: Mean EC50 HIV-1NL4-3
pEC50: −log10 of the molar value.
Each entry below lists one item and its recorded pEC50 value.
endpointName: pEC50

[[record]]
compound = "COc1ccc(S(=O)(=O)N(CC(C)C)C[C@@H](O)[C@H](Cc2ccccc2)NC(=O)c2cc(O)cc(O)c2)cc1 [15f]"
measurednumber = 7.54

[[record]]
compound = "COc1ccc(S(=O)(=O)N(CC(C)C)C[C@@H](O)[C@H](Cc2ccccc2)NC(=O)c2ccc(Cl)cc2O)cc1 [15b]"
measurednumber = 5.85

[[record]]
compound = "CC(C)CN(C[C@@H](O)[C@H](Cc1ccccc1)NC(=O)O[C@H]1CO[C@H]2OCC[C@H]21)S(=O)(=O)c1ccc(N)cc1 [DRV, Darunavir, reference compound]"
measurednumber = 8.74

[[record]]
compound = "COc1ccc(S(=O)(=O)N(CC(C)C)C[C@@H](O)[C@H](Cc2ccccc2)NC(=O)c2ccc(O)c(O)c2)cc1 [15d]"
measurednumber = 7.81

